Values from patent US20230256092A1

Target: human CCR8 (human) (UniProt P51685)
Assay: cell-based or functional assay
MEASURED METRIC: IC50 ratio (WT IC50/mutant IC50)
// return a plain number; no unit text

As a guide, the following entries are already answered.
h10A11 (IGKV4-1/IGHV3-73 T31A) (antibody, name in Kabat numbering, V domains shown) VH: EVQLVESGGGLVQPGGSLKLSCAASGFAFNAYALYWVRQASGKGLEWVGRIRSKSNNYATYYADSVKDRFTISRDDSKNTAYLQMNSLKTEDTAVYYCTRARFYYSDYGYAMDYWGQGTLVTVSS VL: DIVMTQSPDSLAVSLGERATINCRSSKSLLHSNGNTYLYWYQQKPGQPPKLLIYRMSNLASGVPDRFSGSGSGTDFTLTISSLQAEDVAVYYCMQHLEYPLTFGQGTKLEIKR    0.17
h10A11 (IGKV4-1/IGHV3-73 R50K) (antibody, name in Kabat numbering, V domains shown) VH: EVQLVESGGGLVQPGGSLKLSCAASGFAFNTYALYWVRQASGKGLEWVGKIRSKSNNYATYYADSVKDRFTISRDDSKNTAYLQMNSLKTEDTAVYYCTRARFYYSDYGYAMDYWGQGTLVTVSS VL: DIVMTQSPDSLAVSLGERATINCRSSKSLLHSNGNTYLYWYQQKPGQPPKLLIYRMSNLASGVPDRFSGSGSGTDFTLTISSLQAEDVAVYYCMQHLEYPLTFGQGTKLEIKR    0.12

-- ask What measured IC50 ratio (WT IC50/mutant IC50) goes with h10A11 (IGKV4-1/IGHV3-73 K52bR) (antibody, name in Kabat numbering, V domains shown) VH: EVQLVESGGGLVQPGGSLKLSCAASGFAFNTYALYWVRQASGKGLEWVGRIRSRSNNYATYYADSVKDRFTISRDDSKNTAYLQMNSLKTEDTAVYYCTRARFYYSDYGYAMDYWGQGTLVTVSS VL: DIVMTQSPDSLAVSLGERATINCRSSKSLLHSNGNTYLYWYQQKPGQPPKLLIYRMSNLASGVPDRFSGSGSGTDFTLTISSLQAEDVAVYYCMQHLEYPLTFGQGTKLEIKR ?
-- reply 0.47

-- ask Give the measured IC50 ratio (WT IC50/mutant IC50) of h10A11 (IGKV4-1/IGHV3-73 A100eV) (antibody, name in Kabat numbering, V domains shown) VH: EVQLVESGGGLVQPGGSLKLSCAASGFAFNTYALYWVRQASGKGLEWVGRIRSKSNNYATYYADSVKDRFTISRDDSKNTAYLQMNSLKTEDTAVYYCTRARFYYSDYGYVMDYWGQGTLVTVSS VL: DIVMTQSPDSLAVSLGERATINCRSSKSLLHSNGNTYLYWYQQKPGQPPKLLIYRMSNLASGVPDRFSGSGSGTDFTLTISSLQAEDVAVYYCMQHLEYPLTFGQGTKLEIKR .
-- reply 0.49

-- ask What measured IC50 ratio (WT IC50/mutant IC50) goes with h10A11 (IGKV4-1/IGHV3-73 Y98F) (antibody, name in Kabat numbering, V domains shown) VH: EVQLVESGGGLVQPGGSLKLSCAASGFAFNTYALYWVRQASGKGLEWVGRIRSKSNNYATYYADSVKDRFTISRDDSKNTAYLQMNSLKTEDTAVYYCTRARFFYSDYGYAMDYWGQGTLVTVSS VL: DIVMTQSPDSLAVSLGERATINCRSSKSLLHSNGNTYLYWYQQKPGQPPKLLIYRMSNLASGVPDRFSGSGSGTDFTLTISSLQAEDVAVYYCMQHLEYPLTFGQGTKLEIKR ?
-- reply 0.07

-- ask Returns the measured IC50 ratio (WT IC50/mutant IC50) for the input binder. Input: h10A11 (IGKV4-1/IGHV3-73 V63L) (antibody, name in Kabat numbering, V domains shown) VH: EVQLVESGGGLVQPGGSLKLSCAASGFAFNTYALYWVRQASGKGLEWVGRIRSKSNNYATYYADSLKDRFTISRDDSKNTAYLQMNSLKTEDTAVYYCTRARFYYSDYGYAMDYWGQGTLVTVSS VL: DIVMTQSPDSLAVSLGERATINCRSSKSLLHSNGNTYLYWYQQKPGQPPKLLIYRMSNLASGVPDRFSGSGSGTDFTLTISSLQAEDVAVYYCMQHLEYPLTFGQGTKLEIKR
-- reply 0.56
